Where do the numbers come from? From PubChem BioAssay AID1817.

- system.name: E3 ubiquitin-protein ligase SIAH1 (Homo sapiens)
- experiment.description: Siah-1 peptide-binding antagonists, primary screen, biochemical, fluorescence polarization, rhodamine-plectin, uHTS (AID 1817);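 further: plate controls were Siah plus tracer with DMSO for no effect and tracer alone without Siah for full effect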
- condition.notes: Siah-1 / rhodamine-plectin peptide fluorescence polarization; at 20 µM
Among all 290,000 compounds or so, about 50 (0.02%) were called active.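 How the source made its calls: active means displacement of at least 50% at 20 µM, with a fluorescence ratio check between 0.3 and a set limit; inactive means the rest.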 What follows is part of a selection rich in actives, with near analogues and random picks from the rest. Measured potencies and affinities stand elsewhere.
One label from this list, please: 1 for active, -1 for inactive

Observe how each entry below is paired with its result.
Cc1ccccc1-n1c(O)c(/C=N/N2CCOCC2)c(=O)[nH]c1=S = -1
COc1ccc(NC(=O)N2CCC3(CC2)OCCO3)cc1 = -1
O=C(O)C1C2CCC(O2)C1C(=O)Nc1ccc(F)c(F)c1 (configuration not stated) = -1

## Input // return assay outcome for Cc1cccc(C)c1NC1=NCCCCS1
## Output -1

## Input // return assay outcome for CCCC12CN3CCN(C1)CC(CCC)(C3)C2=O
## Output -1

## Input // return assay outcome for CCCCCn1c(NC(=O)c2ccco2)c(C(=O)OCC)c2nc3ccccc3nc21
## Output 1

## Input // return assay outcome for O=[N+]([O-])c1ccc(N2CCNCC2)cc1NCc1ccco1
## Output -1

## Input // return assay outcome for C=C1C(=O)O[C@@H]2C[C@@H](C)[C@H]3C=CC(=O)[C@]3(O)C[C@@H]12
## Output 1

## Input // return assay outcome for CCOC(=O)c1c(NS(=O)(=O)c2ccccc2)n(CCCOC)c2nc3ccccc3nc12
## Output 1

## Input // return assay outcome for CC(C)c1ccc(N2C(=O)NC(=O)/C(=C\C=C\c3ccco3)C2=O)cc1
## Output -1

## Input // return assay outcome for COCCCn1c(N)c(C(=O)OCCOC)c2nc3ccccc3nc21
## Output -1

## Input // return assay outcome for C=C1C(=O)O[C@H]2C[C@@H](C)[C@@H]3C=CC(=O)[C@@]3(C)C[C@H]12
## Output -1
